Reference for the values: paper PMC3091528

Molecular target: human LSECtin CRD (Homo sapiens, UniProt Q6UXB4)
Sequence (Q6UXB4 165-293 limits assumed): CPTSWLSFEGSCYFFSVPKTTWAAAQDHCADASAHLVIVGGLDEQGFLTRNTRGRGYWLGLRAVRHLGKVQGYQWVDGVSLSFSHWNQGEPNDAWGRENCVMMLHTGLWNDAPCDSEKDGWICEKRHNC

| compound | targetOrTestSystem | Ki, nM |
| --- | --- | --- |
| CC(=O)N[C@H]1[C@H](O[C@@H]2C(O)O[C@H](CO)[C@@H](O)[C@@H]2O)O[C@H](CO)[C@@H](O)[C@@H]1O (stereo partly shown) | human LSECtin CRD (Homo sapiens, UniProt Q6UXB4) | 1100 |
